Tested on: T-47D spheroids with HUVEC/MSC, viability
Assay Method Text: Anticancer human tumor T-47D cell line growth inhibition [PI3K];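 also: spheroids exposed to agents for seven days before reading; percent of DMSO vehicle control luminescence so 100% = untreated growth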
Condition Set: second compound 0.0316 µM; first compound 10 µM; stronger effect = lower value
# key: entry, value: viability, T/C
Property Measured: viability, T/C

{"Compound": "CC1(C)CCC(Nc2ncc(C(F)(F)F)c(-c3c[nH]c4c(P(C)(C)=O)c(C#N)ccc34)n2)CN1 (configuration not stated) + COc1c(OCCCN2CCOCC2)ccc2c3n(c(=NC(=O)c4cnc(N)nc4)nc12)CCN3", "Property Measured": "viability, T/C", "Experimental Value": "14.1%"}
{"Compound": "CC(Cn1ccc(-c2ccc(C#N)c(Cl)c2)n1)NC(=O)c1cc(C(C)O)[nH]n1 (configuration not stated) + COc1c(OCCCN2CCOCC2)ccc2c3n(c(=NC(=O)c4cnc(N)nc4)nc12)CCN3", "Property Measured": "viability, T/C", "Experimental Value": "45.7%"}
{"Compound": "Cn1nccc1Nc1nccc(-c2ccn(C(CO)c3ccc(Cl)c(F)c3)c(=O)c2)n1 (configuration not stated) + CC(Nc1ccc2c(c1)OCCn1cc(N3C(=O)OCC3C(F)F)nc1-2)C(N)=O", "Property Measured": "viability, T/C", "Experimental Value": "85.7%"}
{"Compound": "CC(C)NCC(C(=O)N1CCN(c2ncnc3c2C(C)CC3O)CC1)c1ccc(Cl)cc1 (configuration not stated) + CC(Nc1ncnc2nc[nH]c12)c1cc2cccc(Cl)c2c(=O)n1-c1ccccc1", "Property Measured": "viability, T/C", "Experimental Value": "57.2%"}
{"Compound": "C#Cc1c(F)ccc2cc(O)cc(-c3ncc4c(N5CC6CCC(C5)N6)nc(OCC56CCCN5CC(F)C6)nc4c3F)c12 (configuration not stated) + Cc1nc(NC(=O)N2CCCC2C(N)=O)sc1-c1ccnc(C(C)(C)C(F)(F)F)c1", "Property Measured": "viability, T/C", "Experimental Value": "74.8%"}
{"Compound": "CCCS(=O)(=O)Nc1ccc(F)c(C(=O)c2c[nH]c3ncc(-c4ccc(Cl)cc4)cc23)c1F + CC(Nc1ncnc2nc[nH]c12)c1cc2cccc(Cl)c2c(=O)n1-c1ccccc1", "Property Measured": "viability, T/C", "Experimental Value": "53%"}
{"Compound": "CC1(C)CCC(CN2CCN(c3ccc(C(=O)NS(=O)(=O)c4ccc(NCC5CCOCC5)c([N+](=O)[O-])c4)c(Oc4cnc5[nH]ccc5c4)c3)CC2)=C(c2ccc(Cl)cc2)C1 + CC(Nc1ccc2c(c1)OCCn1cc(N3C(=O)OCC3C(F)F)nc1-2)C(N)=O", "Property Measured": "viability, T/C", "Experimental Value": "65.5%"}
